target: Irc15p (Saccharomyces cerevisiae, UniProt Q02733); construct: E. coli Rosetta (DE3); ~55 kDa subunit, homodimer ~113-115 kDa, one FAD per protomer; experiment: stopped-flow reductive half-reaction, flavin absorption at […] nm, hyperbolic fit of rate; conditions: anoxic; 50 mM HEPES, 50 mM NaCl, 1 mM DTT, pH 7.0; 4 °C; pre-steady-state; read-out: dissociation constant
Sequence (Q02733 whole entry): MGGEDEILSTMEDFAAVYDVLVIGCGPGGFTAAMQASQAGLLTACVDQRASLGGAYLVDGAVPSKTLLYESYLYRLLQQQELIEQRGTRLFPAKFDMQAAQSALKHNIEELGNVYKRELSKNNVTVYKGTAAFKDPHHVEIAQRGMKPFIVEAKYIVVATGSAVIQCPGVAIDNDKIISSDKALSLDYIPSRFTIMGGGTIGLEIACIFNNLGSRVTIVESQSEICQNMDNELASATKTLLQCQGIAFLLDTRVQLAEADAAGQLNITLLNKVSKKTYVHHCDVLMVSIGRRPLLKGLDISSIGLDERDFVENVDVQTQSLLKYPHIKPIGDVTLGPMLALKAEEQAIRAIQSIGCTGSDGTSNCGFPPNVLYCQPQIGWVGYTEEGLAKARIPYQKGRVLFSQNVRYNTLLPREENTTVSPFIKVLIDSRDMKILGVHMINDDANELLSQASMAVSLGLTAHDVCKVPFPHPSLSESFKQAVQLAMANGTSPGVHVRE
Metric: Kd (µM)
Numeric only. Scale: µM

Input line: Requested field: Kd. Item: "NC(=O)C1=CN([C@@H]2O[C@H](COP(=O)(O)OP(=O)(O)OC[C@H]3O[C@@H](n4cnc5c(N)ncnc54)[C@H](O)[C@@H]3O)[C@@H](O)[C@H]2O)C=CC1"
Output line: 100

Values from paper PMC6296175
